PROTOCOL: Microsomal stability in mouse liver microsomes assessed as compound remaining after 60 mins by LC-MS/MS analysis
Format: ADME, Microsome
MEASUREMENT PARAMETERS: liver microsomes, read-out: Stability

SAMPLE SMILES	remaining at 1 h [%]
CNc1cc(C)c(C(N)=O)cn1	85
NC(=O)c1cnc2c(c1)CCN2	89
Cc1c(C(N)=O)cnc2c1CCN2	47
NC(=O)c1cnc2c(c1Cl)CCN2	40
C[C@@H]1Cc2cc(C(N)=O)cnc2N1	93

====

PROTOCOL: Clearance in C57BL6/N mouse at 1 mg/kg, iv measured upto 24 hrs by LC-MS/MS analysis
Type: ADME, organism-based
MEASUREMENT PARAMETERS: in vivo
clearance vs 90 mL/min/kg: at or above is 1, below is 0.

SAMPLE SMILES	GROUP
NC(=O)c1cnc2c(c1)CCN2	0
Cc1c(C(N)=O)cnc2c1CCN2	1
NC(=O)c1cnc2c(c1Cl)CCN2	1
CNc1cc(C)c(C(N)=O)cn1	0
